meta.source: the supplement of paper PMC13380429

Tested on: A549-ACE2 infected with SARS-CoV-2
Experiment: cell count relative to DMSO; higher = less toxic
Conditions: 10 µM; 24 h
Reported cell count values follow for various compounds
recorded endpoint: cell count (%)

                                   compound  observed_value
0  CCOC(=O)c1c(C)[nH]c2ccc3c(c12)CN1CCc2cc(OC)ccc2C1O3 (stereo not given)             114
1  c1ccc2c(CCNc3ccc(Nc4ccncc4)cc3)c[nH]c2c1             115
2  COc1cc2c(NC3CCN(C4CCCCC4)CC3)nc(N3CCCN(C(C)C)CC3)nc2cc1OCCCN1CCCCC1             112
3  NC(=O)c1cnc(N[C@@H]2CCCC[C@@H]2N)nc1Nc1cccc(-n2nccn2)c1              50
4  COc1ccc(/C=C/C(=O)/C=C(O)/C=C/c2ccc(OC)c(OC)c2)cc1OC              98
